# STUDY_TARGET: human IGF-1R, native, on cells (MCF-7, hIGF-1R transfected cells, primary normal human cells) (human, UniProt P08069 31-1367)
# ASSAY_INFO: cell-based or functional assay
METRIC_NAME: MCF7 internalisation assay: % remaining rh IGF1R (%)
Output spec: scalar in %, unitless text.

Record murine antibody 214F8 (hybridoma CNCM I-4775) (antibody, V domains shown, also called m214F8) VH: QVQLQQSGSELVKPGASVKLSCKASGYTFTSYYIHWVKQRPGQGLEWIGWIWPGDGSTKYNERFKGKTTLTADKSSSTAYMFLSSLTSEDSAVYFCASPMITPNYAMDYWGQGASVTVSS VL: DIQMTQTTSSLSASLGDRVTFSCRASQDISKYLNWYQQQPDGTIKLLIYYTSRLHSGVPSRFSGRGSGTDYSLTITNLEQEDIATYFCQQGSALPYTFGGGTKLEIK . Reported MCF7 internalisation assay: % remaining rh IGF1R: 29

Attribution: patent US20200270352A1
